Assay: qHTS Assay for Rab9 Promoter Activators; note: nearly all actives have a fitted effect of over 60% in size
Settings: Huh7 Rab9 promoter-luciferase reporter, luminescence, 24 h; series mostly up to 9.22 µM
Source text: NIH Chemical Genomics Center [NCGC] NIH Molecular Libraries Probe Production centers Network [MLPCN] […] The Rab9 promoter is cloned in front of the luciferase reporter gene, therefore […] promoter activation results in luciferase expression. […] 7.Read using the luminescence protocol on the ViewLux plate reader (Perkin Elmer).
The campaign covered roughly 320,000 compounds. About 9,100 (2.8%) were called active. Roughly 3% stayed inconclusive and do not appear here. Calls come from the whole dose curve; as a rule, active = well fitted activation curve with a large enough effect; inconclusive = small, poorly fitted or top-dose-only effect; inactive = no such curve, though single readings can be large or run the other way. The list comes from a sample in which actives are over-represented; it also holds close analogues and randomly drawn compounds.
Pick from TRUE (active), FALSE (inactive) when you respond.

Which outcome was entered for the compound "C/C(=N\NC(=O)Cc1ccc(Cl)cc1)c1ccccn1" in this test?
FALSE

Which outcome was entered for the compound "Cc1ccc(NC(=O)O/N=C/c2cccc([N+](=O)[O-])c2)cc1" in this test?
FALSE

Which outcome was entered for the compound "O=[N+]([O-])c1cccc(/C=N/Nc2ncc(Br)cn2)c1" in this test?
TRUE

Which outcome was entered for the compound "Cc1cc(C)nc(Nc2ncn[nH]2)n1" in this test?
FALSE

Which outcome was entered for the compound "CNS(=O)(=O)c1cccc(C(=O)OCC(=O)N2c3ccccc3NC(=O)C2(C)C)c1" in this test?
FALSE

Which outcome was entered for the compound "C/C(CC(=O)Nc1ccc(N(C)C)cc1)=N\NC(=O)c1ccccc1F" in this test?
FALSE

Which outcome was entered for the compound "c1ccc2c(c1)CSc1sccc1C2=C1CCNCC1" in this test?
FALSE

Which outcome was entered for the compound "COc1ccc(S(=O)(=O)N2CCOCC2)cc1NC(=O)Cc1coc2cc(C)ccc12" in this test?
FALSE

Which outcome was entered for the compound "Nn1c(SCC(=O)Nc2nccs2)nnc1-c1ccco1" in this test?
FALSE

Which outcome was entered for the compound "COc1ccccc1-c1nc(SC)n[nH]1" in this test?
FALSE

Which outcome was entered for the compound CCCCc1ccc(NC(=O)CN2C(=O)NC(Cc3ccccc3)C2=O)cc1 (configuration not stated) in this test?
FALSE

Which outcome was entered for the compound "Cc1cc(C)nc(Nc2n[nH]c(-c3ccccc3N)n2)n1" in this test?
TRUE
